Reported values of Ratio Ki for individual entries
Organism: Homo sapiens
experiment: Selectivity ratio of Ki for human dopamine D1 receptor expressed in HEKT cell membranes to Ki for human dopamine D3 receptor expressed in HEKT cell membranes
Assay type: cell-based
readout kind: Ratio Ki

# substance smiles, assay result
measured = [
    ("COc1cc2c(cc1O)CN(CCCCNC(=O)c1ccc(I)cc1)CC2", 160),
    ("COc1cc2c(cc1O)CN(CCCCNC(=O)c1ccc(Cl)cc1)CC2", 323),
    ("COc1cc2c(cc1O)CN(CCCCNC(=O)c1ccc3ccccc3c1)CC2", 296),
    ("COc1cc2c(cc1O)CN(CCCCNC(=O)c1ccnc3ccccc13)CC2", 82),
    ("COc1cc2c(cc1O)CN(CCCCNC(=O)c1ccc(Br)cc1)CC2", 147),
    ("COc1cc2c(cc1O)CN(CCCCNC(=O)c1ccc(-c3ccccc3)cc1)CC2", 296),
]
